pIC50 by entry:
- TGT: TAK1/TAB1 (Homo sapiens)
- Sequence (Q15750 whole entry): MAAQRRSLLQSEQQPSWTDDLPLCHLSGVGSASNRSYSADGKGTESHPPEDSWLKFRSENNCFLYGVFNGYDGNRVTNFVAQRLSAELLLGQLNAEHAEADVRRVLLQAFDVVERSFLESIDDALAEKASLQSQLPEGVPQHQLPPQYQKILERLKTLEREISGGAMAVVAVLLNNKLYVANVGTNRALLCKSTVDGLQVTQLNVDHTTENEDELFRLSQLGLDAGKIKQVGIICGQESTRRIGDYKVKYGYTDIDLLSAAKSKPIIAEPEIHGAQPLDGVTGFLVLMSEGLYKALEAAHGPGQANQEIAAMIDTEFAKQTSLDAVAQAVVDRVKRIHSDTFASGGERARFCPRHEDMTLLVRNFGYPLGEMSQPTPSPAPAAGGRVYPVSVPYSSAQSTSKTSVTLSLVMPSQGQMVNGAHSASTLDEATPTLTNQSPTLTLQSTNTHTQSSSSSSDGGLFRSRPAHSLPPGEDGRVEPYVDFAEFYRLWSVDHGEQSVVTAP
- Sequence (O43318 whole entry): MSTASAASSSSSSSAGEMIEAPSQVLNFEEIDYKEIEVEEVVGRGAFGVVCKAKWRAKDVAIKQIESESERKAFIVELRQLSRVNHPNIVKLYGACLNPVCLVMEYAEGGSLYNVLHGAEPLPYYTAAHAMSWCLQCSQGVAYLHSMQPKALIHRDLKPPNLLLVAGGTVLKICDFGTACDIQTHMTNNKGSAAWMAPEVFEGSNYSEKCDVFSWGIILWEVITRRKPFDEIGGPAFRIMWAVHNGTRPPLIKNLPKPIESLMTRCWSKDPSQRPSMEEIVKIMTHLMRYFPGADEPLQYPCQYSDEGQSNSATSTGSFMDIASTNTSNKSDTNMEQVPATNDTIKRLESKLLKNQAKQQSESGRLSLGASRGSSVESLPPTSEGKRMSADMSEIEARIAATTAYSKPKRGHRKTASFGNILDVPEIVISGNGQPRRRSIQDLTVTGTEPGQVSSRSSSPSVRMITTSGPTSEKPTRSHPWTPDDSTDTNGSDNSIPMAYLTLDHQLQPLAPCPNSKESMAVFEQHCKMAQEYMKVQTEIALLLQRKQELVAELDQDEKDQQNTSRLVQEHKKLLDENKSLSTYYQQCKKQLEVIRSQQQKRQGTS
- PROTOCOL TEXT: Inhibition of TAK1-TAB1 (unknown origin) by alphascreen assay in presence of ATP
pIC50: −log10 of the molar value.

{"columns": ["MOL", "TGT", "pIC50"],
 "data": [
  ["Cc1ccc(-c2cnc(N)c3oc(-c4csc5cnccc45)cc23)o1", "TAK1/TAB1 (Homo sapiens)", 5.68],
  ["Nc1ncc(-c2cnn([C@H]3CC[C@H](O)CC3)c2)c2c(-c3cccnc3)c(-c3cccc4nnsc34)oc12", "TAK1/TAB1 (Homo sapiens)", 6.96],
  ["Nc1ncc(-c2cnn([C@H]3CC[C@H](O)CC3)c2)c2cc(-c3cccc4nnsc34)oc12", "TAK1/TAB1 (Homo sapiens)", 8.05],
  ["Nc1ncc(-c2cccnc2)c2cc(-c3csc4cnccc34)oc12", "TAK1/TAB1 (Homo sapiens)", 5.42],
  ["Cc1nn(C)c(C)c1-c1cnc(N)c2oc(-c3csc4cnccc34)cc12", "TAK1/TAB1 (Homo sapiens)", 4.62],
  ["Nc1ncc(-c2ccoc2)c2cc(-c3csc4cnccc34)oc12", "TAK1/TAB1 (Homo sapiens)", 6.25],
  ["COCC#Cc1cnc(N)c2oc(-c3csc4cnccc34)cc12", "TAK1/TAB1 (Homo sapiens)", 5.54],
  ["Cc1c(-c2cnc(N)c3oc(-c4csc5cnccc45)cc23)cnn1C", "TAK1/TAB1 (Homo sapiens)", 5.39],
  ["Cc1nn(C)cc1-c1cnc(N)c2oc(-c3csc4cnccc34)cc12", "TAK1/TAB1 (Homo sapiens)", 5.46],
  ["Cn1cnc(-c2cnc(N)c3oc(-c4csc5cnccc45)cc23)c1", "TAK1/TAB1 (Homo sapiens)", 4.90]
]}

---

clearance by entry:
- PROTOCOL TEXT: Clearance in mouse at 2 mg/kg, iv
- Assay type: ADME, organism-based
- Design: dose 2 mg/kg, route intravenous
- ASSAY CONDITIONS: in vivo

{"columns": ["MOL", "clearance, mL/min/kg"],
 "data": [
  ["Nc1ncc(-c2cnn([C@H]3CC[C@H](O)CC3)c2)c2cc(-c3cccc4nnsc34)oc12", 70],
  ["Nc1ncc(-c2cnn([C@H]3CC[C@H](O)CC3)c2)c2cc(-c3cccc4cnsc34)oc12", 111],
  ["CC(=O)N1CCC(n2cc(-c3cnc(N)c4oc(-c5csc6cnccc56)cc34)cn2)CC1", 178],
  ["Nc1ncc(-c2cnn([C@H]3CC[C@H](O)CC3)c2)c2c(Cl)c(-c3cccc4nnsc34)oc12", 20],
  ["Nc1ncc(-c2cnn([C@H]3CC[C@H](O)CC3)c2)c2c(C(F)F)c(-c3cccc4nnsc34)oc12", 10]
]}

---

- TGT: Mitogen-activated protein kinase kinase kinase 7 (Homo sapiens)
- Sequence (O43318 whole entry): as above
- PROTOCOL TEXT: Inhibition of TAK1 in human HCT116 cells assessed as inhibition of TNF-alpha-stimulated JNK phosphorylation
- Type: cell-based, HCT-116

{"columns": ["MOL", "MEASUREMENT UNITS", "IC50"],
 "data": [
  ["Cc1nn(C)c(C)c1-c1cnc(N)c2oc(-c3csc4cnccc34)cc12", "nM", 4400],
  ["Nc1ncc(-c2cnn([C@H]3CC[C@H](O)CC3)c2)c2c(C(F)F)c(-c3cccc4nnsc34)oc12", "nM", 20],
  ["Nc1ncc(-c2cnn([C@H]3CC[C@H](O)CC3)c2)c2c(CF)c(-c3cccc4nnsc34)oc12", "nM", 45],
  ["Nc1ncc(-c2cnn([C@H]3CC[C@H](O)CC3)c2)c2c(-c3cncs3)c(-c3cccc4nnsc34)oc12", "nM", 43]
]}
